experiment_notes: NF-kB promoter reporter activators, neuronal cells, dose response, cell-based, SH-SY5Y, luciferase (AID 1241)
condition: fold induction
assay_metric: pEC50
# pEC50 = -log10(concentration in molar units)

Prompt: Identify measured pEC50 associated with COc1ccc(-c2nnc(-c3ccc(N)cc3)o2)cc1
Completion: 5.67

Prompt: Give the value of pEC50 reported for the following: Clc1cccc(-c2nnc(-c3ccccc3)o2)c1
Completion: 5.78

Prompt: Given COc1ccc(NC(=O)c2nc3ccccc3s2)cc1 , respond with its pEC50.
Completion: 6.34

Prompt: Note pEC50 for the molecule shown: COc1ccc2nc(-c3ccccc3)[nH]c2c1
Completion: 5.88

Prompt: Entry COc1cccc(-c2nc3ccccc3s2)c1 needs its pEC50 filled in; supply it.
Completion: 4.96

Prompt: # return recorded pEC50 for input Nc1nc(-c2ccccc2)nc2sc3c(c12)CCCC3
Completion: 6.06

Prompt: Hello, please tell me recorded pEC50 for this one: C=CCN=c1scc(-c2ccccc2)n1/N=C/c1ccccn1
Completion: 5.84

Prompt: Please give measured pEC50 of the following entry: COC(=O)CSc1nc(-c2cccs2)ccc1C#N
Completion: 5.25

Prompt: Supply reported pEC50 belonging to this molecule: COCC(=O)Nc1nnc(-c2ccc(C(C)(C)C)cc2)s1
Completion: 4.96

Prompt: // fetch pEC50 given entry O=C(Nc1ccc2c(c1)CCC2)c1ccccc1F
Completion: 5.74

Prompt: Assign pEC50 to the following record: Cc1ccc(-c2nc3cc(Cl)ccc3o2)cc1
Completion: 5.76

Prompt: Kindly indicate its recorded pEC50. Item: O=C(/C=C/c1ccco1)Nc1ccc2c(c1)OCCO2
Completion: 5.89

Prompt: Let me know recorded pEC50 for O=C(/C=C\Nc1ccc(Br)cc1)c1cccnc1 , thanks.
Completion: 5.94

Prompt: Retrieve pEC50 measured for COc1ccccc1Oc1ccc(N/C=C/C(=O)c2ccco2)cc1 and print it.
Completion: 5.15

Prompt: Return pEC50 for the following molecule: COC(=O)c1ccc(NC(=O)C(=O)c2cccn2C)cc1
Completion: 5.77

Prompt: Give reported pEC50 value for Cc1cnc(C(=O)Nc2ccc3c(c2)CCC3)cn1
Completion: 5.61

Prompt: Identify measured pEC50 associated with Cc1ccc(S(=O)(=O)/N=C(/NC(=S)Nc2ccccc2)c2ccccc2)cc1
Completion: 4.63

Prompt: Supply recorded pEC50 for Cc1occc1C(=O)Nc1cccc2ccccc12 here.
Completion: 5.34

Prompt: Provide only the value of recorded pEC50 for CCOC(=O)c1sc(NC(=O)c2sccc2C)cc1C
Completion: 6.02

Prompt: Supply pEC50 value. Item: Cc1cc(N)n2nc(-c3ccccc3)cc2n1
Completion: 5.00

Prompt: Respond only with pEC50 recorded for CC(=O)Nc1cccc(-c2csc(Nc3ccc(Cl)cn3)n2)c1
Completion: 5.66

Prompt: Respond only with pEC50 recorded for Cn1c(C(=O)Nc2ccc3c(c2)OCO3)cc2sccc21
Completion: 5.28

Prompt: Look up and report measured pEC50 for this entry: Cc1cccnc1Nc1nc(-c2ccccn2)cs1
Completion: 6.80

Prompt: Name the recorded pEC50 of the molecule listed here: COc1cc(/C=N/O)ccc1OCc1ccc(Cl)cc1
Completion: 6.05

Prompt: Let me know recorded pEC50 for CC(=O)N(/N=C1\Sc2ccccc2C1=O)c1cccc(C)c1 , thanks.
Completion: 4.65

Prompt: Return pEC50 for the following molecule: CCOC(=O)c1nn(-c2ccc(Br)cc2)cc1C(=O)c1cccc2ccccc12
Completion: 5.52
